# protocolText: Inhibitory activity against (PDT22) Prephenate dehydratase
# Parameters: species or system Escherichia coli
Friendly reminder: IC50 below 2 mM is class 1, at or above is class 0.

| molecularString | categoryLabel |
| --- | --- |
| O=C(O)c1cccc(C(=O)O)c1-c1c(C(=O)O)cccc1[N+](=O)[O-] | class 1 |
| O=C(O)c1cccc([N+](=O)[O-])c1-c1c(C(=O)O)cccc1[N+](=O)[O-] | class 1 |
| Cc1cccc(C(=O)O)c1-c1c(C(=O)O)cccc1[N+](=O)[O-] | class 1 |
| O=C(O)c1cc(C(=O)O)c(-c2ccccc2[N+](=O)[O-])c(C(=O)O)c1 | class 1 |
| O=C(O)c1cccc([N+](=O)[O-])c1-c1cccc(F)c1C(=O)O | class 0 |
| O=C(O)c1ccc([N+](=O)[O-])c(-c2c(C(=O)O)cccc2[N+](=O)[O-])c1 | class 1 |
| COc1cccc(C(=O)O)c1-c1ccccc1C(=O)O | class 0 |

* * *

# protocolText: Inhibitory activity against chorismate mutase
# Design: species or system Escherichia coli
# IC50 annotations

| molecularString | IC50, µM |
| --- | --- |
| O=C(O)c1ccc([N+](=O)[O-])c(-c2c(C(=O)O)cccc2[N+](=O)[O-])c1 | 1350 |
| O=C(O)c1ccc([N+](=O)[O-])cc1-c1c(C(=O)O)cccc1[N+](=O)[O-] | 1150 |
| O=C(O)c1cccc([N+](=O)[O-])c1-c1c(C(=O)O)cccc1[N+](=O)[O-] | 50 |
| Cc1cccc(C(=O)O)c1-c1c(C(=O)O)cccc1[N+](=O)[O-] | 730 |
| O=C(O)c1cc(O)c(O)cc1-c1c(C(=O)O)cccc1[N+](=O)[O-] | 1000 |
| O=C(O)c1cccc(C(=O)O)c1-c1c(C(=O)O)cccc1[N+](=O)[O-] | 450 |
| COc1cccc(C(=O)O)c1-c1c(C(=O)O)cccc1[N+](=O)[O-] | 800 |
| O=C(O)c1cccc([N+](=O)[O-])c1-c1cccc(F)c1C(=O)O | 600 |
| O=C(O)c1ccccc1-c1c(O)cccc1C(=O)O | 1000 |
| O=C(O)c1ccccc1-c1c(C(=O)O)cccc1[N+](=O)[O-] | 280 |
| O=C(O)c1cc(O)ccc1-c1c(C(=O)O)cccc1[N+](=O)[O-] | 350 |

* * *

# protocolText: Inhibitory activity against (PDT22) Prephenate dehydratase
# Design: species or system Escherichia coli
Quick reference for IC50 among some compounds

| molecularString | IC50 / µM |
| --- | --- |
| O=C(O)c1ccccc1-c1c(C(=O)O)cccc1[N+](=O)[O-] | 1900 |
| COc1cccc(C(=O)O)c1-c1c(C(=O)O)cccc1[N+](=O)[O-] | 3000 |
| O=C(O)c1ccccc1-c1c(O)cccc1C(=O)O | 2900 |
| O=C(O)c1ccc([N+](=O)[O-])cc1-c1c(C(=O)O)cccc1[N+](=O)[O-] | 750 |
| O=C(O)c1cc(O)ccc1-c1c(C(=O)O)cccc1[N+](=O)[O-] | 950 |
